Entries and their TGI
# Tested on: SR
# TEST_METHOD_NOTES: Growth inhibition of human SR cells incubated for 48 hrs by sulforhodamine B assay
# Assay type: functional
Provide the reading as a plain figure in µM.

Here is how some compounds turned out for TGI.
compound="C=C1CC[C@@H]2[C@](C)(COC(C)=O)[C@H](OC(C)=O)CC[C@@]2(C)[C@H]1CC(Nc1ccc(S(=O)(=O)Nc2ncccn2)cc1)C1=CCOC1=O (stereo not given in full)" reported_metric=TGI quantity_unit=µM observed=17.2
compound="C=C1CC[C@@H]2[C@](C)(COC(C)=O)[C@H](OC(C)=O)CC[C@@]2(C)[C@H]1CC(Nc1ccc(S(=O)(=O)Nc2cc(C)on2)cc1)C1=CCOC1=O (stereo not given in full)" reported_metric=TGI quantity_unit=µM observed=3.36

Turning now to a further record.
In: Check SR data and give TGI for C=C1CC[C@@H]2[C@](C)(COC(C)=O)[C@H](OC(C)=O)CC[C@@]2(C)[C@H]1CC(Nc1ccc(S(=O)(=O)Nc2ccc(Cl)nn2)cc1)C1=CCOC1=O (stereo not given in full) .
Out: 8.1

====

# Test system: SK-MEL-28
# TEST_METHOD_NOTES: Growth inhibition of human SK-MEL-28 cells incubated for 48 hrs by sulforhodamine B assay
# Format: functional
# CONDITION_LABEL: SK-MEL-28, 48 h
REPORTED_METRIC: LC50 (50% net cell kill)
Lab note: write values as number then unit, every time.

Consider the following illustrative entries.
compound="C=C1CC[C@@H]2[C@](C)(COC(C)=O)[C@H](OC(C)=O)CC[C@@]2(C)[C@H]1CC(Nc1ccc(S(=O)(=O)Nc2ccc(Cl)nn2)cc1)C1=CCOC1=O (stereo not given in full)" observed="7.13 µM"
compound="C=C1CC[C@@H]2[C@](C)(COC(C)=O)[C@H](OC(C)=O)CC[C@@]2(C)[C@H]1CC(Nc1ccc(S(=O)(=O)Nc2nccs2)cc1)C1=CCOC1=O (stereo not given in full)" observed="41.8 µM"
compound="C=C1CC[C@@H]2[C@](C)(COC(C)=O)[C@H](OC(C)=O)CC[C@@]2(C)[C@H]1CC(Nc1ccc(S(=O)(=O)Nc2nccc(C)n2)cc1)C1=CCOC1=O (stereo not given in full)" observed="36.3 µM"
compound="C=C1CC[C@@H]2[C@](C)(COC(C)=O)[C@H](OC(C)=O)CC[C@@]2(C)[C@H]1CC(Nc1ccc(S(=O)(=O)Nc2cc(C)on2)cc1)C1=CCOC1=O (stereo not given in full)" observed="9.2 µM"

# input for lookup
In: Retrieve LC50 (50% net cell kill) measured for C=C1CC[C@@H]2[C@](C)(COC(C)=O)[C@H](OC(C)=O)CC[C@@]2(C)[C@H]1CC(Nc1ccc(S(=O)(=O)Nc2ncccn2)cc1)C1=CCOC1=O (stereo not given in full) and print it.
Out: 6.2 µM

====

# Test system: UO-31
# TEST_METHOD_NOTES: Growth inhibition of human UO31 cells incubated for 48 hrs by sulforhodamine B assay
# Type: functional
# CONDITION_LABEL: UO-31, 48 h
In this section we review reported LC50 (concentration giving net 50% loss of initial cells) values for a set of molecules.
A number alone suffices; assume µM.

Consider the following illustrative entries.
molecule="C=C1CC[C@@H]2[C@](C)(COC(C)=O)[C@H](OC(C)=O)CC[C@@]2(C)[C@H]1CC(Nc1ccc(S(=O)(=O)Nc2cc(C)on2)cc1)C1=CCOC1=O (stereo not given in full)" observed=7.33
molecule="C=C1CC[C@@H]2[C@](C)(COC(C)=O)[C@H](OC(C)=O)CC[C@@]2(C)[C@H]1CC(Nc1ccc(S(=O)(=O)Nc2ccc(Cl)nn2)cc1)C1=CCOC1=O (stereo not given in full)" observed=5.73
molecule="C=C1CC[C@@H]2[C@](C)(COC(C)=O)[C@H](OC(C)=O)CC[C@@]2(C)[C@H]1CC(Nc1ccc(S(=O)(=O)Nc2nccs2)cc1)C1=CCOC1=O (stereo not given in full)" observed=41.8
molecule="C=C1CC[C@@H]2[C@](C)(COC(C)=O)[C@H](OC(C)=O)CC[C@@]2(C)[C@H]1CC(Nc1ccc(S(=O)(=O)Nc2nccc(C)n2)cc1)C1=CCOC1=O (stereo not given in full)" observed=33.3

Next molecule, LC50 (concentration giving net 50% loss of initial cells) to be filled in.
In: Given the molecule C=C1CC[C@@H]2[C@](C)(COC(C)=O)[C@H](OC(C)=O)CC[C@@]2(C)[C@H]1CC(Nc1ccc(S(=O)(=O)Nc2ncccn2)cc1)C1=CCOC1=O (stereo not given in full) , write its reported LC50 (concentration giving net 50% loss of initial cells).
Out: 5.85
